Test system: Mycobacterium tuberculosis
test_details: Antitubercular activity against Mycobacterium tuberculosis H37Rv incubated for 6 days by alamar blue assay
Assay type: functional
experimental_parameters: 144 h, time 6 day
Threshold 0.8 µg/mL: MIC99 strictly smaller gives y, otherwise n.

- structure_smiles_string: "CCC(CC)c1nc2cc(NC(=O)c3ccc(OC)c(OC)c3)c(N(C)C)cc2[nH]1"
  class_name: "n"
- structure_smiles_string: "CCCCOC(=O)Nc1cc2nc(CN3CCOCC3)[nH]c2cc1N(C)C"
  class_name: "n"
- structure_smiles_string: "CCCCOC(=O)Nc1cc2nc(CN3CCCC3)[nH]c2cc1N(C)C"
  class_name: "n"

Does COc1ccc(C(=O)Nc2cc3nc(C4CCCC4)[nH]c3cc2N(C)C)cc1 have MIC99 strictly under 0.8 µg/mL?
n

Does CN(C)c1cc2[nH]c(C3CCOCC3)nc2cc1NC(=O)c1ccc(OC(F)(F)F)cc1 have MIC99 strictly under 0.8 µg/mL?
n

Does CCCCOC(=O)Nc1cc2nc(Sc3ccccc3)[nH]c2cc1N(C)C have MIC99 strictly under 0.8 µg/mL?
y

Does CCC(CC)c1nc2cc(NC(=O)c3ccc(F)cc3F)c(N(C)C)cc2[nH]1 have MIC99 strictly under 0.8 µg/mL?
y

Does CN(C)c1cc2[nH]c(C3CCCC3)nc2cc1NC(=O)C(C)(C)C have MIC99 strictly under 0.8 µg/mL?
n

Does CCCCOC(=O)Nc1cc2nc(CN(C)c3ccccc3)[nH]c2cc1N(C)C have MIC99 strictly under 0.8 µg/mL?
y
